Taken from paper PMC12155096.

target: human CYP2C19 (Homo sapiens, UniProt P33261); assay: biochemical; settings: CYP2C19 AC50 (half-maximal activity concentration)
Sequence (P33261 whole entry): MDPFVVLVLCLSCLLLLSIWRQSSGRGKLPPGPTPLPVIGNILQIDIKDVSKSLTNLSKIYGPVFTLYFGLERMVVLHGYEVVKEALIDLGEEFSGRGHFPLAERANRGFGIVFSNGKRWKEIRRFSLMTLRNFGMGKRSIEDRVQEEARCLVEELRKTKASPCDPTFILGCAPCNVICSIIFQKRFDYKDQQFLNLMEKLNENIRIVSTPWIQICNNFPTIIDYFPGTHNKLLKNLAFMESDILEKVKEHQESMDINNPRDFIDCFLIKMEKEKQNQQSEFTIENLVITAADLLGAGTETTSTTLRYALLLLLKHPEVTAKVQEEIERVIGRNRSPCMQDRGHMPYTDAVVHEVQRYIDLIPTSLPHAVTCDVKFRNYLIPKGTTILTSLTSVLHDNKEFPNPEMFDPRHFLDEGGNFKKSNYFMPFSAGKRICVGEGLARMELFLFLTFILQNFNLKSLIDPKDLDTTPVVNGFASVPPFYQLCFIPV
Structures can show the parent of a compound that is named as a salt.
reported_property: log10 of AC50 (log10 of the value in µM)
Hey, these are logged values: log10 of AC50, µM being the unit before logging.

Sample CCCSP(=O)(OCC)SCCC ; log10 of AC50 observed: 1.30

Sample O=C1C(=O)c2cccc3cccc1c23 ; log10 of AC50 observed: 1.55

Sample O=CC(Br)(Br)Br ; log10 of AC50 observed: 1.73

Sample COP(=O)(OC)OC(=CCl)c1cc(Cl)c(Cl)cc1Cl ; log10 of AC50 observed: 0.83

Sample CN(C)C(=O)C(CCN1CCC(O)(c2ccc(Cl)cc2)CC1)(c1ccccc1)c1ccccc1 [Loperamide hydrochloride] ; log10 of AC50 observed: 1.61

Sample CC1(C)C(C=C(Cl)Cl)C1C(=O)OC(C#N)c1cccc(Oc2ccccc2)c1 (stereo not drawn) [alpha-Cypermethrin] ; log10 of AC50 observed: 0.81

Sample CN(C)C(=O)C(c1ccccc1)c1ccccc1 ; log10 of AC50 observed: 1.73

Sample CC(=O)O[C@]1(C(C)=O)CC[C@H]2[C@@H]3C=C(C)C4=CC(=O)CC[C@]4(C)[C@H]3CC[C@@]21C [Megestrol acetate] ; log10 of AC50 observed: 0.86

Sample CC(C)N(C(=O)COc1nnc(C(F)(F)F)s1)c1ccc(F)cc1 ; log10 of AC50 observed: 0.53
